Origin of measurements: patent US12365738B2

Target: T1, hIL-11R (Homo sapiens, UniProt Q14626)
T1 sequence (Q14626 23-422): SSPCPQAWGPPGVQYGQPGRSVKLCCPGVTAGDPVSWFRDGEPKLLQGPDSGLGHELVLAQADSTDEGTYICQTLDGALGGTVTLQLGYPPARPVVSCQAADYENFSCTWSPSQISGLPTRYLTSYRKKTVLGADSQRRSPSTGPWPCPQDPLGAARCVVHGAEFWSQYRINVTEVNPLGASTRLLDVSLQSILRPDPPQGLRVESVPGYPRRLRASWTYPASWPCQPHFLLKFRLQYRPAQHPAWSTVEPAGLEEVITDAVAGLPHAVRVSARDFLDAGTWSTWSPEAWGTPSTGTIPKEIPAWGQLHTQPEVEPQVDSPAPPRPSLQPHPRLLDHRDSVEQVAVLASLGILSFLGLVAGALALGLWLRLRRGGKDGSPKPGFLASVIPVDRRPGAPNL
Assay: Alternate biolayer interferometry assay (AHC biosensors) ranking mAbs 16-32 against mAb5
Format: binding
Settings: AHC biosensors

Molecule	kd
mAb29: anti-IL-11Rα antibody, human IgG4 (S228P), kappa; VH SEQ ID NO: 249, VL SEQ ID NO: 250 (antibody, V domains shown, IgG4 S228P kappa constant regions; mAb29 VH Chain; mAb29 VL Chain) VH: EVQLLESGGGLVQPGGSLRLSCAASGFTFSSYSMTWVRQAPGKGLEWVSSIVPYGDLTQYADSVKGRFTISRDNSKNTLYLQMNSLRAEDTAVYYCAKGPGWGSFDLWGRGTLVTVSS VL: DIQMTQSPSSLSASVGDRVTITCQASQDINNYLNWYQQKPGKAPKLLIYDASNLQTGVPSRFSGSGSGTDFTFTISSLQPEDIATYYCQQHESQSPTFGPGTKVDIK	1.8e-05 s⁻¹
